Cited source for all entries: the Biogen ADME set (Fang et al. 2023)

Note to self: intrinsic clearance, rat liver microsomes under 50 mL/min/kg means MET, ties and anything higher get NOT MET.

Known results for compounds:
Smiles Repr: CCNc1ccnc(-c2cccc(C(=O)NCCCc3cnn(C)c3)c2)n1
Answer Label: NOT MET

Smiles Repr: Cc1ccc(=O)n(CCOc2ccc(Cl)c(F)c2)n1
Answer Label: NOT MET

Smiles Repr: Cc1ccc(OCN2CCCCC2=O)nc1
Answer Label: MET

Lab note: confirm whether the reported intrinsic clearance, rat liver microsomes for this compound is below 50 mL/min/kg, equality not counting. compound: `O=C(Cn1ccnc1)NCc1ccccc1F` MET

Criterion: intrinsic clearance, rat liver microsomes strictly below 50 mL/min/kg. Is it met by `C[C@@H]1CC(=O)Nc2cccc(-c3ccc4c(c3)c(-c3cnn(C)c3)nn4C)c2N1` ? MET

Consider `Cc1cc(NC(=O)CCc2c(C)nn(C)c2C)no1` . Does its intrinsic clearance, rat liver microsomes lie strictly below 50 mL/min/kg? MET
